Target Entity: CIB1 and αIIb interaction (CIB1-GST : F-αIIb peptide) (Homo sapiens, UniProt Q99828)
Construct: made in house; host or cells: BL-21 plus RIL cells (E. coli)
Sequence (Q99828 1-191): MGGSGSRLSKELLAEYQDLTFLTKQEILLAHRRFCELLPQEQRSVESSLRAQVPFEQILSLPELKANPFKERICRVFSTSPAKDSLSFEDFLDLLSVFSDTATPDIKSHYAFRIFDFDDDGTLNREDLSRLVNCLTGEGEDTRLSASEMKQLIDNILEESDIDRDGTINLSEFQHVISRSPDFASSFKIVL
Experimental Details: FP assay, 1536-well qHTS format (primary and confirmatory screen)
Assay type: binding
Condition Context: confirmatory screen
Attribute Measured: Efficacy (%) (confirmatory screen)
Numbers only, in %.

Some solved entries appear below for comparison.
[[record]]
compound = "CCN1CCN(c2ccc(Nc3ccc(-c4ccc(C(N)=O)cc4)n4ncnc34)cc2)CC1.O=C(O)C(F)(F)F [NCGC00249351-01]"
target_entity = "CIB1 and αIIb interaction (CIB1-GST : F-αIIb peptide) (Homo sapiens, UniProt Q99828)"
units_symbol = "%"
quantitative_result = -64

[[record]]
compound = "Cc1cc(C)nc(NC(=S)N2CCN(c3ccc4nsnc4c3)CC2)c1.O=C(O)C(F)(F)F [NCGC00244160-01]"
target_entity = "CIB1 and αIIb interaction (CIB1-GST : F-αIIb peptide) (Homo sapiens, UniProt Q99828)"
units_symbol = "%"
quantitative_result = -106

[[record]]
compound = "O=C(Cc1ccc(Cl)c(Cl)c1)Nc1ccc(S(=O)(=O)Nc2cnccn2)cc1.O=C(O)C(F)(F)F [NCGC00248365-02]"
target_entity = "CIB1 and αIIb interaction (CIB1-GST : F-αIIb peptide) (Homo sapiens, UniProt Q99828)"
units_symbol = "%"
quantitative_result = -30

[[record]]
compound = "CNc1ccc([N+](=O)[O-])c(Nc2ccc3[nH]ncc3c2)n1 [NCGC00387499-01]"
target_entity = "CIB1 and αIIb interaction (CIB1-GST : F-αIIb peptide) (Homo sapiens, UniProt Q99828)"
units_symbol = "%"
quantitative_result = -53

[[record]]
compound = "CCN(CC)CCN(Cc1ccc(-c2ccc(C(F)(F)F)cc2)cc1)C(=O)Cn1c(SCc2ccc(F)cc2)nc(=O)c2c1CCC2 [NCGC00386337-05]"
target_entity = "CIB1 and αIIb interaction (CIB1-GST : F-αIIb peptide) (Homo sapiens, UniProt Q99828)"
units_symbol = "%"
quantitative_result = -65


Value sought for every listed compound: Efficacy (%) (confirmatory screen).
1. Cc1ccc2nc3sc(C(=O)NCc4ccco4)cc3cc2c1.O=C(O)C(F)(F)F [NCGC00183968-01]
2. O=c1[nH]c(=O)c2nc3ccccc3nc2[nH]1 [NCGC00015021-05]
3. COc1ccc2c(c[n+](C)c3c4cc5c(cc4ccc23)OCO5)c1OC.[Cl-] [NCGC00015225-03]

1: -34; 2: -58; 3: -56

// batch mode: one Efficacy (%) (confirmatory screen) value per listed entry
1. C[C@H](Cc1ccc(O)c(O)c1)[C@@H](C)Cc1ccc(O)c(O)c1 [NCGC00094201-01]
2. CCOC(=O)c1ccc(O)c2ncc(N3CCC(C(=N)N)CC3)cc12.O=C(O)C(F)(F)F [NCGC00241051-01]
3. O=C1Nc2cc(Cl)ccc2Nc2cscc21 [NCGC00167991-01]
4. Nc1ccc(O)c([N+](=O)[O-])c1 [NCGC00091261-03]
5. Cl.N=C(NCCCCCCNC(=N)NC(=N)Nc1ccc(Cl)cc1)NC(=N)Nc1ccc(Cl)cc1 [NCGC00016246-13]
6. CNc1ccc(C(=O)Oc2cc(ON=[N+]([O-])N(C)C)c([N+](=O)[O-])cc2[N+](=O)[O-])cc1 [NCGC00168169-02]
7. COc1ccc(NC(=O)c2[nH]c(C)c(C(C)=O)c2C)cc1S(=O)(=O)Nc1ccccc1C#N [NCGC00348145-01]
8. O=c1nc(-c2ccccn2)sc2ccccc12 [NCGC00387147-01]

[-95, -129, -75, -127, -57, -42, -41, -28]
